Target: Interstitial collagenase (Homo sapiens)
Sequence (P03956 whole entry): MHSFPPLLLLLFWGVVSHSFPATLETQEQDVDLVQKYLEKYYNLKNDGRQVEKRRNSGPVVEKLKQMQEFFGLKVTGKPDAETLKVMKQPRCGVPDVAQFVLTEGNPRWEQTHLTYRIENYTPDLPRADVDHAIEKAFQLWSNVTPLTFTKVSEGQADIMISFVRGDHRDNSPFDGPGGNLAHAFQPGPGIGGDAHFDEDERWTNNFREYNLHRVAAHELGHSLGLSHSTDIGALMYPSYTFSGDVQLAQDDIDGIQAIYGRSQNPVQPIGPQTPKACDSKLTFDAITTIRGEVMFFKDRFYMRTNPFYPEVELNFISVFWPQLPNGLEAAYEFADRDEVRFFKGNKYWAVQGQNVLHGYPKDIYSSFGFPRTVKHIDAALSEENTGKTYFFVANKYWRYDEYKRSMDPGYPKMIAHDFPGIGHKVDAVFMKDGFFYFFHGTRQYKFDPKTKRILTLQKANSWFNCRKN
pIC50: −log10 of the molar value.
measure: pIC50

CC(C)C[C@H](CC(=O)NO)C(=O)N[C@@H](Cc1ccccc1)C(=O)N[C@@H](C)C=O    7.60

I: CCOC(OCC)[C@H](C)NC(=O)[C@H](Cc1ccccc1)NC(=O)[C@@H](CC(=O)NO)CC(C)C
II: CC(C)C[C@H](CC(=O)NO)C(=O)N[C@@H](CC(C)C)C(=O)N[C@@H](C)C=O
Kindly identify the item with the lower pIC50 figure among these two: I and II Field: selected label. Fill in the label of the entry you choose.
II
(II: 7.33, I: 7.54)
